Parameter: abundance fitness. Scope: all listed entries.
B1: Androgen receptor, residues 557 to 632; numbered along this chain, P10275 (parent)
chain: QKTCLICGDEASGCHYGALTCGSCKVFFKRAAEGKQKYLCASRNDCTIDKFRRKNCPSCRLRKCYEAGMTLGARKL

variants of: B1; assay: abundance fitness (aPCA) (normalised: wild type 0, dead -1); higher = more abundant; growth selection in yeast, the domain comes from the species named; details: Homo sapiens
metric: abundance fitness

{"biopolymer_sequence": "QKTCLTCGDEASGCHYGALTCGSCKVFFKRAAEGKQKYLCASRNDCTIDKFRRKNCPSCRLRKCYEAGMTLGARKL [I6T]", "numeric_readout": -0.256}
{"biopolymer_sequence": "QKTCLICGDEASGCHYGALTCGSCKVFFKRAAEGNQKYLCASRNDCTIDKFRRKNCPSCRLRKCYEAGMTLGARKL [K35N]", "numeric_readout": -0.093}
{"biopolymer_sequence": "QKTRLICGDEASGCHYGALTCGSCKVFFKRAAEGKQKYLCASRNDCTIDKFRRKNCPSCRLRKCYEAGMTLGARKL [C4R]", "numeric_readout": -0.114}

Reference for the values: the Human Domainome abundance scans (Beltran et al. 2025)
